- SYSTEM: SMARCA2 (Homo sapiens)
- Sequence (P51531 whole entry): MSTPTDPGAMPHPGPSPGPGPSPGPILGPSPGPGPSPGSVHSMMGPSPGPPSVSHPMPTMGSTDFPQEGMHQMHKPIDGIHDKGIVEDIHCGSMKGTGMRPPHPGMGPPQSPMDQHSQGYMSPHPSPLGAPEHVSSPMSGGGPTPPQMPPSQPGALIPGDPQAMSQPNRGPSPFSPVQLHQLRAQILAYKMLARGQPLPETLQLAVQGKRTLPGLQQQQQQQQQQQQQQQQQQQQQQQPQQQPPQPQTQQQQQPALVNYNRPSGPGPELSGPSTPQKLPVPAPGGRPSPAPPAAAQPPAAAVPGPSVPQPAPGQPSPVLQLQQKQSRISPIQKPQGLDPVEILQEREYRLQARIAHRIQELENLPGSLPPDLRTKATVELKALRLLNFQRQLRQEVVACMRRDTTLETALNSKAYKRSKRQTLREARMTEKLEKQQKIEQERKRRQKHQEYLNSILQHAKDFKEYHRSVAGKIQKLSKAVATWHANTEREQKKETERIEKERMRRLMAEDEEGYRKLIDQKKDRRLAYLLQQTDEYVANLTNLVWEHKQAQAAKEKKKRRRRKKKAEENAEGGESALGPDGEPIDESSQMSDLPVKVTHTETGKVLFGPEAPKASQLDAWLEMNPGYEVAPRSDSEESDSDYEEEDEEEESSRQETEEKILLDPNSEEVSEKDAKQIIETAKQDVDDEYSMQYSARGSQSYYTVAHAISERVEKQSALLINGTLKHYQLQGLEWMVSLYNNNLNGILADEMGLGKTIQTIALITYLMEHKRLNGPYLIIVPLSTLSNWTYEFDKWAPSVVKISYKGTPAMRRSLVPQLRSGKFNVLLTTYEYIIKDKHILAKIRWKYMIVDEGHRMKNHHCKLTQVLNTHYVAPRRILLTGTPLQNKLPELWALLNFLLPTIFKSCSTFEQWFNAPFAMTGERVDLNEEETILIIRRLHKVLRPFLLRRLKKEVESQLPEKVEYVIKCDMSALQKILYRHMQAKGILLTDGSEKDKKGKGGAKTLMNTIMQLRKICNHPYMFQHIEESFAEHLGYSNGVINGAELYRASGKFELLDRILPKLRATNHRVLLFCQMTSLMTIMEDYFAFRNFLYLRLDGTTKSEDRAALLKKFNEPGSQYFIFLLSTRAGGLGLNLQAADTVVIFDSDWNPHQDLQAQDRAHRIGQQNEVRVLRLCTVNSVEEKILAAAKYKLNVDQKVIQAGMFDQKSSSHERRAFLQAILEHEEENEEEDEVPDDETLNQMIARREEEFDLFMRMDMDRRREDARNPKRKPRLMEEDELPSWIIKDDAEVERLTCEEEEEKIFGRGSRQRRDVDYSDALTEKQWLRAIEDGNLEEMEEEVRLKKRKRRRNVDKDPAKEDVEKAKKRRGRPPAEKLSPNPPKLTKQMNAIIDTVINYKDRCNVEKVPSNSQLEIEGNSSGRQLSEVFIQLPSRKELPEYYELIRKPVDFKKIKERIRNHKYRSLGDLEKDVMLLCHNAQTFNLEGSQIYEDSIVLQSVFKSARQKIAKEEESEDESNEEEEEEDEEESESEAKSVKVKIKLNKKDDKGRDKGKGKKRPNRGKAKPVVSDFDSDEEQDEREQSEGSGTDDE
- ASSAY TEXT: HiBit assay in engineered HT1080 CRISPR knock-in cell, 6 hrs (B series), SMARCA2
- Type: cell-based
- RECORDED CONDITIONS: HT1080 CRISPR knock-in cells, 6 hrs incubation; read-out: SMARC A2 HT1080 HiBit DC50
- Protocol: The HiBit assay was performed using engineered HT1080 CRISPR knock-in cell utilizing the Nano-Glo HiBiT Lytic Detection System from Promega, Cat #N3040. Compounds were transferred, 25 nL DMSO or test compounds (final DMSO @ 0.1%) to intermediate plates (Corning3570) using ECHO550. […] After briefly centrifugation (2000 rpm 1 mins), plate was read on Envision (Ultrasensitive luminescence model).
Answer each item with its documented DC50.

Lab request: please report DC50 under test system SMARCA2 (Homo sapiens) for Cc1ncsc1-c1ccc([C@H](C)NC(=O)[C@@H]2C[C@@H](O)CN2C(=O)[C@@H](NC(=O)C2CC(N3CCC(c4ccc5c(c4)C(C)(C)c4nc(=O)c6c(Cl)cccc6n4-5)CC3)C2)C(C)(C)C)cc1 (stereo partly drawn) [Compound B14]
< 100 nM

Lab request: please report DC50 under test system SMARCA2 (Homo sapiens) for Cc1ncsc1-c1ccc(CNC(=O)[C@@H]2C[C@@H](O)CN2C(=O)[C@@H](NC(=O)C2(F)CC2)C(C)(C)C)c(OCC2CCC(N3CCC(c4ccc5c(c4)-n4c(nc(=O)c6c(Cl)cccc64)C5(C)C)CC3)CC2)c1 (stereo partly drawn)
< 100 nM

Lab request: please report DC50 under test system SMARCA2 (Homo sapiens) for Cc1ncsc1-c1ccc([C@H](C)NC(=O)[C@@H]2C[C@@H](O)CN2C(=O)[C@@H](c2cc(OC3CCC(Cn4cc(-c5ccc6c(c5)-n5c(nc(=O)c7c(Cl)cccc75)C6(C)C)cn4)CC3)no2)C(C)C)cc1 (stereo partly drawn) [Compound B96]
< 100 nM

Lab request: please report DC50 under test system SMARCA2 (Homo sapiens) for Cc1ncsc1-c1ccc([C@H](C)NC(=O)[C@@H]2C[C@@H](O)CN2C(=O)[C@@H](NC(=O)CCn2cc(-c3ccc4c(c3)C(C)(C)c3nc(=O)c5c(Cl)cccc5n3-4)cn2)C(C)(C)C)cc1
> 1000 nM

Lab request: please report DC50 under test system SMARCA2 (Homo sapiens) for Cc1ncsc1-c1ccc([C@H](C)NC(=O)[C@@H]2C[C@@H](O)CN2C(=O)[C@@H](c2cc(OCC3CCC(N4CCC(c5cccc6c5C(C)(C)c5nc(=O)c7c(Cl)cccc7n5-6)CC4)CC3)no2)C(C)C)cc1 (stereo partly drawn)
< 100 nM

Lab request: please report DC50 under test system SMARCA2 (Homo sapiens) for Cc1ncsc1-c1ccc([C@H](CN2CCOCC2)NC(=O)[C@@H]2C[C@@H](O)CN2C(=O)[C@H](C(C)C)n2cc([C@H]3CC[C@H](CN4CCC(c5ccc6c(c5)-n5c(nc(=O)c7c(Br)cccc75)C65CCCCC5)CC4)CC3)nn2)cc1
< 100 nM

Lab request: please report DC50 under test system SMARCA2 (Homo sapiens) for Cc1ncsc1-c1ccc([C@H](C)NC(=O)[C@@H]2C[C@@H](O)CN2C(=O)C(c2cc(OCCCCn3cc(-c4ccc5c(c4)C(C)(C)c4nc(=O)c6c(Cl)cccc6n4-5)cn3)no2)C(C)C)cc1 (stereo partly drawn)
< 100 nM

Lab request: please report DC50 under test system SMARCA2 (Homo sapiens) for Cc1ncsc1-c1ccc([C@H](C)NC(=O)[C@@H]2C[C@@H](O)CN2C(=O)[C@H](C(C)C)n2cc(CC3CCC(N4CCC(c5cccc6c5C(C)(C)c5nc(=O)c7c(Cl)cccc7n5-6)CC4)CC3)nn2)cc1 (stereo partly drawn)
< 100 nM

Lab request: please report DC50 under test system SMARCA2 (Homo sapiens) for C[C@H](NC(=O)[C@@H]1C[C@@H](O)CN1C(=O)[C@@H](n1cc([C@H]2CC[C@H](CN3CCC(c4ccc5c(c4)-n4c(nc(=O)c6c(Cl)cccc64)C5(C)C)CC3)CC2)nn1)C(C)(C)C)c1ccc(-c2scnc2C#CCN2CCOCC2)cc1
< 100 nM
